Target or test system: human ether-à-go-go-related gene (hERG) potassium channel (human, UniProt Q12809);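 also: peak tail current of the secondary pulse compared with the same well before compound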
Sequence (Q12809 whole entry, looked up): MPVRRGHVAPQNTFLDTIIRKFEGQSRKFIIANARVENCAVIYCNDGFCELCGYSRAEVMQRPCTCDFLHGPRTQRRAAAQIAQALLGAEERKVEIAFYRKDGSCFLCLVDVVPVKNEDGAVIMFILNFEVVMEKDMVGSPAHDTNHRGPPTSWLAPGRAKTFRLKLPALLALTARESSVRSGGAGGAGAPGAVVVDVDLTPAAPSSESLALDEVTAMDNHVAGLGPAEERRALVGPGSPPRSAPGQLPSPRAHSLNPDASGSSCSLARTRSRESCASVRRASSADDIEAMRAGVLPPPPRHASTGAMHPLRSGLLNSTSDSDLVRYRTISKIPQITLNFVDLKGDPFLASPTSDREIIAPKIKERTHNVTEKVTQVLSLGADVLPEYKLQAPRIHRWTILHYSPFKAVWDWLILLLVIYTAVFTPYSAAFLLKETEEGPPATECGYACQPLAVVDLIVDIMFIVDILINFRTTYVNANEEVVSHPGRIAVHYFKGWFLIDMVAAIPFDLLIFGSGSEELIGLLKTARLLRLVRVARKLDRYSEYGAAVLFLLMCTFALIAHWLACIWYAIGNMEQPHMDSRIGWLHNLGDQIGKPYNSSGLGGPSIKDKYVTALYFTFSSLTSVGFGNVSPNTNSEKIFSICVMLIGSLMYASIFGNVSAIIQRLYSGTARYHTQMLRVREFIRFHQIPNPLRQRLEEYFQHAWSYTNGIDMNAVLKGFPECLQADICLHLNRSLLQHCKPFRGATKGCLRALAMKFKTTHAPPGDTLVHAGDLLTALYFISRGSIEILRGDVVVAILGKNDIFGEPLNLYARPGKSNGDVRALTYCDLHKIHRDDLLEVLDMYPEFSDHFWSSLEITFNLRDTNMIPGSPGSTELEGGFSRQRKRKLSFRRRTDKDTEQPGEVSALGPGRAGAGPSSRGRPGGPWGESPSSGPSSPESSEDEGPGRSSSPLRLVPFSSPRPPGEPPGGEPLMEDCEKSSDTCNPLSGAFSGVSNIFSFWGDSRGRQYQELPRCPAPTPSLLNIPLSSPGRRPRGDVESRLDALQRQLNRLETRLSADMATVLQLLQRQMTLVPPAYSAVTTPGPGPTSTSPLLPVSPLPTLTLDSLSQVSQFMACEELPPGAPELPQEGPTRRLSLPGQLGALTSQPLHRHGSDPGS
Assay notes: primary screen, population patch clamp on CHO cells stably expressing hERG; higher = less effect of the substance
The campaign covered roughly 310,000 compounds. About 14,000 (4.5%) showed an effect of 50% or more. The effect is printed as a negative number. The full list was thinned out, with strong results kept by preference.
Quantity name: hERG current change (%, negative = inhibition) at 10uM (%)

Compound	Unit spec	Quantitative result
Cc1ccc(Cn2ncc3c(N4CCN(c5ccc(C)cc5)CC4)ncnc32)cc1	%	8.18
O=C(Cc1nnc(NC(=O)c2ccccc2)s1)N/N=C\c1ccc(O)c(O)c1	%	23.4
O=C(CSC1=NS(=O)(=O)c2ccccc2N1)c1ccccc1	%	-8.85
O=C(c1ccccc1)c1c[nH]c2ccccc12	%	14.6
Cc1cc(Cl)ccc1OC(C)C(=O)NN1C(=O)c2ccccc2C1=O (centres unmarked)	%	20.9

###

Target or test system: human ether-à-go-go-related gene (hERG) potassium channel (human, UniProt Q12809);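 also: peak tail current of the secondary pulse compared with the same well before compound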
Assay notes: primary screen, population patch clamp on CHO cells stably expressing hERG; higher = less effect of the substance
The campaign covered roughly 310,000 compounds. About 14,000 (4.5%) showed an effect of 50% or more. The effect is printed as a negative number. For the sample, strong results were picked, then their nearest neighbours and some compounds at random.
Use Met when the recorded hERG current change (%, negative = inhibition) at 10uM is no lower than -20%; use Not met when it is lower.

Smiles entry	Category
O=C(CSc1nc(O)c(C2CCCCC2)c(=O)[nH]1)Nc1ccc(F)cc1	Met
CC(=O)n1cc([C@@H]2C=C(C(=O)N3CCN(Cc4ccccc4)CC3)O[C@H](OCc3ccc(CO)cc3)C2)c2ccccc21	Met
CC(=O)n1cc([C@H]2C=C(C(=O)N3CCOCC3)O[C@@H](OCCCCO)C2)c2ccccc21	Met
O=C(C1=C[C@H](c2csc3ccccc23)C[C@H](OCc2ccc(CO)cc2)O1)N1CCOCC1	Not met
O=C(C1=C[C@@H](c2csc3ccccc23)C[C@@H](OCc2ccc(CO)cc2)O1)N1CCOCC1	Not met
CC(=O)n1cc([C@@H]2C=C(C(=O)O)O[C@H](OCc3ccc(CO)cc3)C2)c2ccccc21	Met
O=C(C1=C[C@H](c2csc3ccccc23)C[C@H](OCc2ccc(CO)cc2)O1)N1CCCCCCC1	Met
C=CCOC(=O)C1=C[C@H](c2cn(C(C)=O)c3ccccc23)C[C@H](OCc2ccc(CO)cc2)O1	Met

###

Target or test system: human ether-à-go-go-related gene (hERG) potassium channel (human, UniProt Q12809);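 also: peak tail current of the secondary pulse compared with the same well before compound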
Assay notes: primary screen, population patch clamp on CHO cells stably expressing hERG; higher = less effect of the substance
The whole screen tested about 310,000 compounds, of which about 14,000 (4.5%) showed an effect of 50% or more. Effects have a minus sign here. Shown is part of a subset that was picked to be rich in strong results.
Quantity name: hERG current change (%, negative = inhibition) at 10uM (%)

Molecule	Unit spec	Quantitative result
CCOC(=O)Nc1cccc2ccccc12	%	1.14
COc1ccc(NC(=O)C(=O)NCCN2CCN(C(=O)c3ccc(C(C)(C)C)cc3)CC2)cc1	%	-2.54
COc1ccc(C(=O)Nc2ccccc2)cc1NC(=O)c1ccc([N+](=O)[O-])cc1	%	-56.8
O=C1C2C3C=CC(C3)C2C(=O)N1c1ccc(N2CCN(c3ccccn3)CC2)c([N+](=O)[O-])c1 (centres unmarked)	%	-18.6
COc1ccccc1N/C(=N/S(=O)(=O)c1ccc(Cl)cc1)c1ccccc1	%	-35.1
CCNC(=O)NC(=O)COC(=O)CCCSc1nc2ccccc2s1	%	-8.6
CN(CCc1cn[nH]c1)Cc1nc(C(c2ccccc2)c2ccccc2)no1	%	-38.5
Cc1ccc(-n2c(C)nnc2SCC(=O)N2CCOCC2)cc1	%	21.9
COc1ccc(C(=O)Nc2cccc(NC(=O)c3cccs3)c2)cc1OC	%	8.5
CCOc1ccc(NC(=O)C(=O)NCCN2CCN(S(=O)(=O)c3ccc(C)cc3)CC2)cc1	%	8.62
COc1cc(C(=O)NNC(=O)c2cc(C)[nH]n2)cc(OC)c1OC	%	18.8
NC(=O)CCn1cnc2ccccc21	%	6.28
COc1ccccc1N/C(=N/S(=O)(=O)c1ccc(C)cc1)c1ccccc1	%	-31
COc1ccc(NC(=O)CSc2nnc(-c3ccccn3)n2N)cc1Cl	%	-2.27
CCN(CC)CCN(C)Cc1nc(C(c2ccccc2)c2ccccc2)no1	%	-57.7
COc1ccc([N+](=O)[O-])cc1NC(=O)Nc1ccccc1	%	10.3
COc1ccc(C(=O)Nc2ccc(NC(=O)c3cccs3)cc2)cc1Cl	%	27.5
NC(=O)c1ccsc1NC(=O)COC(=O)c1cnccn1	%	2.13
CCC1CCc2c(sc(NC(=O)C3c4ccccc4Oc4ccccc43)c2C(N)=O)C1 (centres unmarked)	%	2.02
CCc1ccc(C(=O)COC(=O)c2ccco2)cc1	%	9.18
